- Test system: A431 (ATCC: CRL-1555)
- METHOD SUMMARY: Test of cancer cell growth inhibition (SRB), A431
- CONDITION NOTES: Homo sapiens, A-431, 72 h, read-out: IC50 A431
ENDPOINT: pIC50
Scale: negative log10 of molar concentration, which is what pIC50 denotes.

Some solved cases for reference:
[
  {
    "COMPOUND": "C=CC(=O)NCCCC(=O)Nc1ccc2ncnc(Nc3ccc(F)c(Cl)c3)c2c1 [Example 98]",
    "pIC50": 7.10
  },
  {
    "COMPOUND": "C=CC(=O)N1CCCCC1C(=O)Nc1cc2c(Nc3ccc(OCc4ccccn4)c(Cl)c3)ncnc2cc1OC (stereo not drawn) [Example 196]",
    "pIC50": 7.06
  },
  {
    "COMPOUND": "Cc1cc(C(=O)NCCC(=O)Nc2ccc3ncnc(Nc4ccc(OCc5cccc(F)c5)c(Cl)c4)c3c2)on1 [Example 32]",
    "pIC50": 6.51
  },
  {
    "COMPOUND": "COCCOCC(=O)NCCC(=O)Nc1ccc2ncnc(Nc3ccc(OCc4cccc(F)c4)c(Cl)c3)c2c1 [Example 135]",
    "pIC50": 6.91
  },
  {
    "COMPOUND": "C=CC(=O)NCCCC(=O)Nc1ccc2ncnc(Nc3ccc(OCc4cccc(F)c4)c(Cl)c3)c2c1 [Example 89]",
    "pIC50": 6.76
  },
  {
    "COMPOUND": "O=C(CN1CCOCC1)NCCCC(=O)Nc1ccc2ncnc(Nc3ccc(OCc4cccc(F)c4)c(Cl)c3)c2c1 [Example 103]",
    "pIC50": 6.64
  }
]

Q) // returns reported pIC50 for input C=CC(=O)N(C)CCC(=O)Nc1ccc2ncnc(Nc3ccc(OCc4ccccn4)c(Cl)c3)c2c1 [Example 143]
A) 8.00

Q) Can you look up the measured pIC50 of O=C(CCNC(=O)C1CC1)Nc1ccc2ncnc(Nc3ccc(OCc4cccc(F)c4)c(Cl)c3)c2c1 [Example 37] for me?
A) 6.86

Q) pIC50 for C=CC(=O)NCCC(=O)Nc1ccc2ncnc(Nc3cncn3Cc3ccccc3)c2c1 [Example 79] ?
A) 7.19

Q) GET /values?readout=pIC50&item= CS(=O)(=O)CC(=O)N1CCCC1C(=O)Nc1ccc2ncnc(Nc3ccc(OCc4cccc(F)c4)c(Cl)c3)c2c1 (stereo not drawn) [Example 17]
A) 6.15

Q) Give the measured pIC50 of C=CC(=O)N1CCC[C@H]1C(=O)Nc1cc2c(Nc3ccc(OCc4ccccn4)c(Cl)c3)ncnc2cc1OCCF [Example 187] .
A) 7.66

Q) I have this compound here, CC(=O)OCC(=O)NCCC(=O)Nc1ccc2ncnc(Nc3ccc(OCc4cccc(F)c4)c(Cl)c3)c2c1 [Example 121] , and I need its recorded pIC50.
A) 6.21

Q) If you can, please state the reported pIC50 value of COCC(=O)NCC(C)C(=O)Nc1ccc2ncnc(Nc3ccc(OCc4cccc(F)c4)c(Cl)c3)c2c1 (stereo not drawn) [Example 42-2] .
A) 6.47

Q) Which pIC50 is listed for O=C(C=Cc1ccccc1)NCCC(=O)Nc1ccc2ncnc(Nc3ccc(OCc4cccc(F)c4)c(Cl)c3)c2c1 [Example 26] ?
A) 6.10

Q) Any idea what its pIC50 is? The compound is C=CC(=O)N1C[C@H](N(C)C)C[C@H]1C(=O)Nc1ccc2ncnc(Nc3ccc(OCc4ccccn4)c(Cl)c3)c2c1 [Example 151]
A) 6.98
